# study_target: Eukaryotic elongation factor 2 kinase (Homo sapiens)
# procedure_details: Inhibition of GST-tagged EEF2K (unknown origin) at 20 uM using biotinylated EEF2 peptide substrate by HTRF assay relative to control
quantity: inhibition (%)

{"line_notation": "CCNc1cc(-c2ccc(NC(=O)Nc3ccc(OC)cc3)cc2F)ccn1", "inhibition (%)": 34.4}
{"line_notation": "CCNc1cc(-c2ccc(NC(=O)Nc3cccc(Cl)c3)cc2C(F)(F)F)ccn1", "inhibition (%)": 82.7}
{"line_notation": "CCNc1cc(-c2ccc(NC(=O)Nc3ccc(C)cc3)cc2C(F)(F)F)ccn1", "inhibition (%)": 37.9}
{"line_notation": "CCNc1cc(-c2ccc(NC(=O)Nc3ccc(C)cc3)cc2C)ccn1", "inhibition (%)": 35.4}
{"line_notation": "CCNc1cc(-c2ccc(NC(=O)Nc3ccc(OC)cc3)cc2C)ccn1", "inhibition (%)": 33.4}
{"line_notation": "CCNc1cc(-c2ccc(NC(=O)Nc3ccc(C(F)(F)F)cc3)cc2F)ccn1", "inhibition (%)": 41.2}
{"line_notation": "O=C(Nc1cccc(Cl)c1)Nc1ccc(-c2ccnc(NCC3CC3)c2)c(C(F)(F)F)c1", "inhibition (%)": 27.8}
{"line_notation": "CCCNc1cc(-c2ccc(NC(=O)Nc3ccc(C(F)(F)F)cc3)cc2C(F)(F)F)ccn1", "inhibition (%)": 33.3}
